These measurements were taken from the kinase profiling compilation of Christmann-Franck et al. (2016).

In this section, each of the compounds is paired with its reported residual activity.
- TARGET_OR_TEST_SYSTEM: BRSK2 (human) (UniProt Q8IWQ3)
- Sequence (Q8IWQ3 whole entry, looked up): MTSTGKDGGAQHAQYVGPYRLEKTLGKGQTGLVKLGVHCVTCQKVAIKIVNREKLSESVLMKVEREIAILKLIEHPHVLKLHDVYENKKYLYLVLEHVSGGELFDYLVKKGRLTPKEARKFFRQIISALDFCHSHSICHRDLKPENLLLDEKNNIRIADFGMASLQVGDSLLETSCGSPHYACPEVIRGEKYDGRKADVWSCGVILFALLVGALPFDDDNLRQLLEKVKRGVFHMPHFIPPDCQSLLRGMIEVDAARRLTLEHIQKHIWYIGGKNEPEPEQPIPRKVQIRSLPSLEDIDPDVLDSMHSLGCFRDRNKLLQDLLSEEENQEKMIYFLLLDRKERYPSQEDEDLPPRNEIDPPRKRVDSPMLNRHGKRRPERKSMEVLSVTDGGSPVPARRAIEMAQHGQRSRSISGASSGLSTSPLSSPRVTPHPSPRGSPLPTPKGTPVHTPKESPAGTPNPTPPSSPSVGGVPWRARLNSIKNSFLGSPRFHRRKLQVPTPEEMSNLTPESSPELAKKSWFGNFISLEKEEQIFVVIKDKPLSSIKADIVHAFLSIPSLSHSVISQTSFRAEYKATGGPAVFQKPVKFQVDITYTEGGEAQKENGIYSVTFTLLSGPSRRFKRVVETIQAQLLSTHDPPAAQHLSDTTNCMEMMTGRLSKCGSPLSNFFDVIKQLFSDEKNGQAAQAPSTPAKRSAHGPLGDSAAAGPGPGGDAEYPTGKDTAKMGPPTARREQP
- ASSAY_PROTOCOL: radiometric filter-binding kinase assay, Kinase HotSpot
- ASSAY_SETUP: compound 0.5 µM; ATP 10 µM
OBSERVATION_TYPE: residual activity (%)

SMILES_NOTATION: N#C/C(=C(/N)Sc1ccc(N)cc1)c1ccccc1C(F)(F)F
OBSERVATION_TYPE: residual activity
VALUE_OBSERVED: 102
--
SMILES_NOTATION: CCN(CC)CCNC(=O)c1c(C)[nH]c(/C=C2\C(=O)Nc3ccc(Cl)cc32)c1C
OBSERVATION_TYPE: residual activity
VALUE_OBSERVED: 53.7
--
SMILES_NOTATION: CC#CC(=O)Nc1cc2c(Nc3ccc(F)c(Cl)c3)ncnc2cn1
OBSERVATION_TYPE: residual activity
VALUE_OBSERVED: 93.3
--
SMILES_NOTATION: CCC(=O)Nc1ccc2ncnc(Nc3cccc(Br)c3)c2c1
OBSERVATION_TYPE: residual activity
VALUE_OBSERVED: 94.3
--
SMILES_NOTATION: O=C1Nc2ccc(Cl)cc2/C1=C/c1cc(Cl)c(O)c(Cl)c1
OBSERVATION_TYPE: residual activity
VALUE_OBSERVED: 77.2
--
SMILES_NOTATION: COc1cc2ncnc(Nc3cccc(Cl)c3)c2cc1OC
OBSERVATION_TYPE: residual activity
VALUE_OBSERVED: 96.7
--
SMILES_NOTATION: O=C1NC(=O)C(c2cn(CCCn3ccnc3)c3ccccc23)=C1Nc1ccccc1
OBSERVATION_TYPE: residual activity
VALUE_OBSERVED: 93.6
--
SMILES_NOTATION: Cc1ccc(NC2=CC(=O)c3sc(C)nc3C2=O)cc1
OBSERVATION_TYPE: residual activity
VALUE_OBSERVED: 93.1
--
SMILES_NOTATION: CCN(CC)CCNC(=O)c1c(C)[nH]c(/C=C2\C(=O)Nc3ccc(F)cc32)c1C
OBSERVATION_TYPE: residual activity
VALUE_OBSERVED: 54.5
--
SMILES_NOTATION: Oc1cccc(-c2nc(N3CCOCC3)c3oc4ncccc4c3n2)c1
OBSERVATION_TYPE: residual activity
VALUE_OBSERVED: 97.1
--
SMILES_NOTATION: COc1ccc2c(c[n+](C)c3c4cc5c(cc4ccc23)OCO5)c1OC
OBSERVATION_TYPE: residual activity
VALUE_OBSERVED: 97
--
SMILES_NOTATION: CNc1cc2c(Nc3cccc(Br)c3)ncnc2cn1
OBSERVATION_TYPE: residual activity
VALUE_OBSERVED: 90.9
--
SMILES_NOTATION: CCCC(=O)Oc1ccc2[nH]c(C(=O)c3cc4ccccc4[nH]3)cc2c1
OBSERVATION_TYPE: residual activity
VALUE_OBSERVED: 98.8
--
SMILES_NOTATION: O=C1NC(=O)/C(=C/c2ccc3c(c2)OC(F)(F)O3)S1
OBSERVATION_TYPE: residual activity
VALUE_OBSERVED: 90.9
--
SMILES_NOTATION: CCN(CC)C(=O)c1ccc(Nc2nc(OCC3CCCCC3)c3nc[nH]c3n2)cc1
OBSERVATION_TYPE: residual activity
VALUE_OBSERVED: 82.5
--
SMILES_NOTATION: O=C1NC(=O)c2c1c1c3ccccc3n3c1c1c2c2ccccc2n1C1CCC3O1
OBSERVATION_TYPE: residual activity
VALUE_OBSERVED: 13.6
--
SMILES_NOTATION: Cc1[nH]c(/C=C2\C(=O)Nc3ccc(S(=O)(=O)N(C)c4cccc(Cl)c4)cc32)c(C)c1C(=O)N1CCN(C)CC1
OBSERVATION_TYPE: residual activity
VALUE_OBSERVED: 89
--
SMILES_NOTATION: c1ccc(-c2n[nH]c3c2oc2ccccc23)cc1
OBSERVATION_TYPE: residual activity
VALUE_OBSERVED: 101
--
SMILES_NOTATION: CC(=O)c1ccc(N2CCOCC2)cc1O
OBSERVATION_TYPE: residual activity
VALUE_OBSERVED: 100
--
SMILES_NOTATION: CNC(=O)c1cc(Oc2ccc(NC(=O)Nc3ccc(Cl)c(C(F)(F)F)c3)cc2)ccn1
OBSERVATION_TYPE: residual activity
VALUE_OBSERVED: 103
--
SMILES_NOTATION: O=C(Nc1cccc(Nc2nccc(Nc3cccc(C(F)(F)F)c3)n2)c1)C1CC1
OBSERVATION_TYPE: residual activity
VALUE_OBSERVED: 89.3
